Catalogue of T/C values
Test system: MX-1 breast xenograft, nude mice, tumor weight change
Experiment: NCI In Vivo Anticancer Drug Screen. Data for tumor model Human Mammary Carcinoma MX-1 Xenograft (subcutaneous) in NU/NU Swiss (nude) mice
Settings: endpoint: optimum tumor weight change; dose: 200.0 mg/kg/injection; schedule: Q04DX003 (ip); vehicle: Klucel (hydroxypropylcellulose) (HPC); higher = larger tumour

INSERT INTO measurements (given_smiles, target_of_assay, test_result) VALUES
  ('CN(C)N=Nc1cn[nH]c1C(N)=O', 'MX-1 breast xenograft, nude mice, tumor weight change', '71 % of control');

Entry Cc1cc(N(CCOS(C)(=O)=O)CCOS(C)(=O)=O)ccc1C=Nc1ccc(-c2nc(Cc3ccccc3)sc2C)cc1 ; T/C = -73 % of control

Reported T/C for CN(C)c1nc(N(C)C)nc(N(C)C)n1 was 1 % of control

The value of T/C measured for the molecule O=[N+]([O-])/C=C\c1ccc2c(c1)OCO2 turned out to be 81 % of control

* * *

System: MX-1 breast xenograft, nude mice, tumor weight change
Assay: NCI In Vivo Anticancer Drug Screen. Data for tumor model Human Mammary Carcinoma MX-1 Xenograft (subcutaneous) in NU/NU Swiss (nude) mice
Settings: endpoint: optimum tumor weight change; dose: 800.0 mg/kg/injection; schedule: Q04DX003 (ip); vehicle: saline with Tween-80; higher = larger tumour
assay.readout: T/C

Answered cases to consult:
INSERT INTO measurements (given_smiles, target_of_assay, test_result) VALUES
  ('ClCC[N+]12CC[N+](CCCl)(CC1)C2', 'MX-1 breast xenograft, nude mice, tumor weight change', '31 % of control'),
  ('C[C@]12CC[C@@H]3c4ccc(OC(=O)Cc5ccc(N(CCCl)CCCl)cc5)cc4CC[C@H]3[C@@H]1CC[C@@H]2OC(=O)Cc1ccc(N(CCCl)CCCl)cc1', 'MX-1 breast xenograft, nude mice, tumor weight change', '50 % of control'),
  ('Nc1ccc(Cl)cc1N', 'MX-1 breast xenograft, nude mice, tumor weight change', '110 % of control');

Next:
Log: MX-1 breast xenograft, nude mice, tumor weight change, compound NC(=S)N/N=C/c1ccc(O)cn1 , T/C = 73 % of control

* * *

Test system: MX-1 breast xenograft, nude mice, tumor weight change
Test: NCI In Vivo Anticancer Drug Screen. Data for tumor model Human Mammary Carcinoma MX-1 Xenograft (subcutaneous) in NU/NU Swiss (nude) mice
Settings: endpoint: optimum tumor weight change; dose: 100.0 mg/kg/injection; schedule: Q04DX003 (ip); vehicle: Klucel (hydroxypropylcellulose) (HPC); higher = larger tumour
assay.readout: T/C

INSERT INTO results (compound, assay_readout, test_result) VALUES
  ('Cc1cc(N(CCOS(C)(=O)=O)CCOS(C)(=O)=O)ccc1C=Nc1ccc(-c2nc(Cc3ccccc3)sc2C)cc1', 'T/C', '-84 % of control'),
  ('COC(OC(CO)C(O)S(=O)(=O)O)C(O)S(=O)(=O)O (stereo not given)', 'T/C', '62 % of control'),
  ('CN(C)N=Nc1cccc(C(N)=O)c1', 'T/C', '87 % of control');

Short answer on MX-1 breast xenograft, nude mice, tumor weight change for CCOC(=O)C1C2OC(=O)C(C(=O)C2CN(CCCl)CCCl)C1C1CC=C(CC2=CCC(C3C4C(=O)OC(C(CN(CCCl)CCCl)C4=O)C3C(=O)OCC)CC2)CC1 (stereo not given) , T/C: 35 % of control

I looked up CCCC(=O)OCc1cc(=O)n(C)c2c3c4c(cc12)c(C)cc(=O)n4CO3 and its T/C for MX-1 breast xenograft, nude mice, tumor weight change was 70 % of control

* * *

Tested on: MX-1 breast xenograft, nude mice, tumor weight change
Experiment: NCI In Vivo Anticancer Drug Screen. Data for tumor model Human Mammary Carcinoma MX-1 Xenograft (subcutaneous) in NU/NU Swiss (nude) mice
Conditions: endpoint: optimum tumor weight change; dose: 50.0 mg/kg/injection; schedule: Q04DX003 (ip); vehicle: saline; higher = larger tumour
assay.readout: T/C

INSERT INTO measurements (compound, test_result) VALUES
  ('N=C(N)Sc1ccccn1', '106 % of control');

MX-1 breast xenograft, nude mice, tumor weight change assay, compound N[C@H](C(=O)O)[C@@H]1CC(Cl)=NO1 , recorded T/C = 12 % of control

Entry O=P1(NCCCl)OCCCN1CCCl (stereo unspecified) , MX-1 breast xenograft, nude mice, tumor weight change data, T/C value: 56 % of control

Measured T/C for this entry Nc1cc2[nH]cnc2c(=O)[nH]1 on MX-1 breast xenograft, nude mice, tumor weight change: 58 % of control

Readout T/C for OCC1OC(n2cnc3cncnc32)C(O)C1O (stereo unspecified) , test system MX-1 breast xenograft, nude mice, tumor weight change, was 108 % of control

Item CN1CCN(CCCN2c3ccccc3Sc3ccc(C(F)(F)F)cc32)CC1 was tested on MX-1 breast xenograft, nude mice, tumor weight change; the reported T/C is 58 % of control

* * *

Parameter: T/C. Scope: all listed entries.
System: MX-1 breast xenograft, nude mice, tumor weight change
Experiment: NCI In Vivo Anticancer Drug Screen. Data for tumor model Human Mammary Carcinoma MX-1 Xenograft (subcutaneous) in NU/NU Swiss (nude) mice
Settings: endpoint: optimum tumor weight change; dose: 100.0 mg/kg/injection; schedule: Q04DX003 (ip); vehicle: saline with Tween-80; higher = larger tumour

T/C reported for this compound ClCC[N+]12CC[N+](CCCl)(CC1)C2 : 60 % of control

Form field T/C, entry O=C1N(Cl)C(=O)C(c2ccc(Cl)cc2)(c2ccc(Cl)cc2)N1Cl : 98 % of control

T/C recorded for this compound, NC(=S)N/N=C/c1ccc(O)cn1 , is 81 % of control

Summary for this compound, CC1(CO)C(O)CCC2(C)C1CCC1CC3CC12CCC3(O)CO (stereo unspecified) : T/C is 50 % of control

Value of T/C reported for the compound CCN(CC)CCCC(C)Nc1c2ccc(Cl)cc2nc2ccc(OC)cc12 (stereo unspecified) is 88 % of control

Sure, the documented T/C for CC(=O)OCC1OC(n2cc(CBr)nn2)C(OC(C)=O)C(OC(C)=O)C1OC(C)=O (stereo unspecified) is 57 % of control

* * *

Test system: MX-1 breast xenograft, nude mice, tumor weight change
Test: NCI In Vivo Anticancer Drug Screen. Data for tumor model Human Mammary Carcinoma MX-1 Xenograft (subcutaneous) in NU/NU Swiss (nude) mice
Settings: endpoint: optimum tumor weight change; dose: 100.0 mg/kg/injection; schedule: Q04DX003 (ip); vehicle: Klucel (hydroxypropylcellulose) (HPC); higher = larger tumour
Let's look at some compounds and their measured T/C.

Data point: O=S(CCCl)CCCl ; T/C = 34 % of control

Quick note, T/C for Nc1nc(N)c2cc(CNc3ccc(C(=O)NC(CC(=O)O)CC(=O)O)cc3)ccc2n1 landed at 49 % of control

* * *

System: MX-1 breast xenograft, nude mice, tumor weight change
Assay: NCI In Vivo Anticancer Drug Screen. Data for tumor model Human Mammary Carcinoma MX-1 Xenograft (subcutaneous) in NU/NU Swiss (nude) mice
Conditions: endpoint: optimum tumor weight change; dose: 100.0 mg/kg/injection; schedule: Q04DX003 (ip); vehicle: Klucel (hydroxypropylcellulose) (HPC); higher = larger tumour
assay.readout: T/C

INSERT INTO assay_data (given_smiles, target_of_assay, test_result) VALUES
  ('CS(=O)(=O)OCCN(CCOS(C)(=O)=O)c1ccc(C=Nc2ccc(-c3csc(COc4ccccc4)n3)cc2)cc1', 'MX-1 breast xenograft, nude mice, tumor weight change', '99 % of control'),
  ('CN(C)N=Nc1cn[nH]c1C(N)=O', 'MX-1 breast xenograft, nude mice, tumor weight change', '98 % of control');

Let's switch to this compound now.
Note to self: T/C of CN(C)c1nc(N(C)C)nc(N(C)C)n1 with MX-1 breast xenograft, nude mice, tumor weight change was 47 % of control
